Just for reference, patent US20150368338A1 is where these values come from.

Target: T1, IFN-αJ1 (human, UniProt P01567 24-189)
T1 construct: also called IFN-α7; alpha J1
Experiment: ProteOn, one antigen concentration
OBSERVED_PROPERTY: pKd
Answer as the number alone; pKd is minus log10 of concentration in mol/L.

Lookup: Annotate the binder IFWM3304 (antibody, V domains shown, VH IFWH591, VL IFWL997; converted mAb; also called IFWB3039) VH: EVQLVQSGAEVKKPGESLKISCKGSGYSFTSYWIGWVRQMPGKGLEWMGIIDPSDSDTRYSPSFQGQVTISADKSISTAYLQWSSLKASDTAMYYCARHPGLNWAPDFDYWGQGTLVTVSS VL: DIQMTQSPSSLSASVGDRVTITCRASQSIGSALNWYQQKPGKAPKLLIYFASSLQSGVPSRFSGSGSGTDFTLTISSLQPEDFATYYCQQSYDFPLTFGQGTKVEIK with its measured pKd.
Found: 10.28

Lookup: Annotate the binder IFWM3311 (antibody, V domains shown, VH IFWH591, VL IFWL1009; converted mAb; also called IFWB3046) VH: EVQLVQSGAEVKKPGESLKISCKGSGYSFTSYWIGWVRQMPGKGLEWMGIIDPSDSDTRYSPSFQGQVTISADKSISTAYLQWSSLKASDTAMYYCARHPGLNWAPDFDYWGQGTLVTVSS VL: DIQMTQSPSSLSASVGDRVTITCRASQSIDDFLNWYQQKPGKAPKLLIYFASSLQSGVPSRFSGSGSGTDFTLTISSLQPEDFATYYCQQSHTLPLTFGQGTKVEIK with its measured pKd.
Found: 10.25

Lookup: Annotate the binder IFWM3338 (antibody, V domains shown, VH IFWH591, VL IFWL1091; converted mAb; also called IFWB3073) VH: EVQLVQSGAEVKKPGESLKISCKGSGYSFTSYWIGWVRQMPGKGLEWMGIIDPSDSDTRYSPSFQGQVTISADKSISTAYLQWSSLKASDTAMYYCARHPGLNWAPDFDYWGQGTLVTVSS VL: DIQMTQSPSSLSASVGDRVTITCRASQSIRNTNLNWYQQKPGKAPKLLIHWASSLQSGVPSRFSGSGSGTDFTLTISSLQPEDFATYYCQQGYDTPFTFGQGTKVEIK with its measured pKd.
Found: 9.61

Lookup: Annotate the binder IFWM3317 (antibody, V domains shown, VH IFWH591, VL IFWL1026; converted mAb; also called IFWB3052) VH: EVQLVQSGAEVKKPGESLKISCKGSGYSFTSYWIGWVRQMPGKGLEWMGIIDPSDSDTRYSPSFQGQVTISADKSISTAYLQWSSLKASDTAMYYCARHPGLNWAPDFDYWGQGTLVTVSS VL: DIQMTQSPSSLSASVGDRVTITCRASQSISKFLNWYQQKPGKAPKLLIYFASSLQSGVPSRFSGSGSGTDFTLTISSLQPEDFATYYCQQSYDFPITFGQGTKVEIK with its measured pKd.
Found: 9.69

Lookup: Annotate the binder IFWM3359 (antibody, V domains shown, VH IFWH624, VL IFWL1047; converted mAb; also called IFWB3094) VH: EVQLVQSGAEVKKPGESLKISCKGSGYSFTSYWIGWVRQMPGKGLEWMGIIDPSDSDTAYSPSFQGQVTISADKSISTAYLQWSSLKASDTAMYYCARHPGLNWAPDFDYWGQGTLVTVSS VL: DIQMTQSPSSLSASVGDRVTITCRASQSINGVLNWYQQKPGKAPKLLIYFASSLQSGVPSRFSGSGSGTDFTLTISSLQPEDFATYYCQQSHDFPLTFGQGTKVEIK with its measured pKd.
Found: 9.87
